Sequence of the target: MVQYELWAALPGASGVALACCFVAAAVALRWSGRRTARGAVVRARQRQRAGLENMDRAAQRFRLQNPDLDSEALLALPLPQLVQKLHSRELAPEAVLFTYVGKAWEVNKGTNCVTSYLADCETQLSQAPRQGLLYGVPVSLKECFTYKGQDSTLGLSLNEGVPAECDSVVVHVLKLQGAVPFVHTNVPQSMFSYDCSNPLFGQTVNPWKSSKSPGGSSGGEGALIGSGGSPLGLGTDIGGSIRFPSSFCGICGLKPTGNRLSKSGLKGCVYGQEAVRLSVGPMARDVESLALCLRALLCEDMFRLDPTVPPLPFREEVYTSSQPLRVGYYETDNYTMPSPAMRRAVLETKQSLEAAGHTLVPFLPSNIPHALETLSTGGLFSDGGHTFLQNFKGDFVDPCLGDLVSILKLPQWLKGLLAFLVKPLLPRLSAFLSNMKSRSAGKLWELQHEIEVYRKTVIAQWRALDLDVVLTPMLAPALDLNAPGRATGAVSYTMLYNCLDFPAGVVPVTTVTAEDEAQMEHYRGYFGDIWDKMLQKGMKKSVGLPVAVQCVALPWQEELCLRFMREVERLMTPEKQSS
Measured Quantity: IC50

[ask] Consider the compound shown here: Cc1ccc(S(=O)(=O)NNC(=O)C(C)c2ccc(CC(C)C)cc2)cc1 (stereo not shown) What is its recorded IC50?
[reply] 1.46 µM

* * *

- System Under Test: hFAAH (Homo sapiens, UniProt O00519)
- Construct: purchased Cayman Chemicals 10005196
- Sequence (O00519 1-579): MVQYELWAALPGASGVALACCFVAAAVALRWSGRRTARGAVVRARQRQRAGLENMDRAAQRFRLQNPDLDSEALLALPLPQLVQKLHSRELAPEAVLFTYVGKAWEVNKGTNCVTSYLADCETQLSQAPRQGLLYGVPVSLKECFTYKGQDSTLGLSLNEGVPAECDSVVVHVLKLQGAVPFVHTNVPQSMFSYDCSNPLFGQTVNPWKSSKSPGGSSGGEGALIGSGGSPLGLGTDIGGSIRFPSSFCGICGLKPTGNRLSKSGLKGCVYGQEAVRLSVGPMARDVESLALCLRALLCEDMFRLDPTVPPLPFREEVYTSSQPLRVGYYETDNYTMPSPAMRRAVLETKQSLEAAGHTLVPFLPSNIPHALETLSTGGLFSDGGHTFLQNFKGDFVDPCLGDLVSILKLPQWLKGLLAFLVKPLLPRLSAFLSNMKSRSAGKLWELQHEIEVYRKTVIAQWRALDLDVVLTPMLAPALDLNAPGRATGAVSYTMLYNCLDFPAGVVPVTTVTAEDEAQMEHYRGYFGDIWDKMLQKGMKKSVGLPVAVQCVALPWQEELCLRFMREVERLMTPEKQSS
- Protocol: Inhibition of FAAH activity (Cayman FAAH inhibitor screening assay kit, AMC-arachidonoyl amide hydrolysis, fluorescence)
- Type: biochemical
- Particulars: 10 μM compound, 30 min preincubation, 37° C., triplicate
- Protocol: Inhibition of FAAH Activity Assay was performed using kits (#10005196) purchased from Cayman Chemicals (Anne Arbor, MI, USA). Ibuprofen was acquired as a generous gift from Tabuk Pharmaceuticals (Tabuk, SA). […] Release of the fluorescent product, 7-amino-4-methylcoumarin (AMC), from the hydrolysis of AMC-arachidonoyl amide, mediated by FAAH at 37° C., was recorded using a plate reader with an excitation filter of 340-360 nm and an emission filter of 450-465 nm. […]
Each record's class is read off its inhibition at 10 µM using these ranges: class A = under 40%, class B = from 40% up to 90%, class C = 90% and over

INSERT INTO assay_data (molecule, discrete_label) VALUES
  ('CC(C)Cc1ccc(C(C)C(=O)NNS(=O)(=O)c2ccccc2)cc1 (stereo not shown)', 'class C'),
  ('CC(=O)c1ccc(S(=O)(=O)NNC(=O)C(C)c2ccc(CC(C)C)cc2)cc1 (stereo not shown)', 'class A'),
  ('CC(C)Cc1ccc(C(C)C(=O)NNS(=O)(=O)c2cccc(C(F)(F)F)c2)cc1 (stereo not shown)', 'class A'),
  ('CC(C)Cc1ccc(C(C)C(=O)NNS(=O)(=O)c2ccc(Br)s2)cc1 (stereo not shown)', 'class A'),
  ('CC(C)Cc1ccc(C(C)C(=O)NNS(=O)(=O)c2ccc(Br)cc2)cc1 (stereo not shown)', 'class B');

[ask] Each molecule maps to one class by inhibition at 10 µM. Which class for CC(C)Cc1ccc(C(C)C(=O)NNS(=O)(=O)c2c(C(C)C)cc(C(C)C)cc2C(C)C)cc1 (stereo not shown) ?
[reply] class A

[ask] Each molecule maps to one class by inhibition at 10 µM. Which class for CC(C)Cc1ccc(C(C)C(=O)NNS(=O)(=O)c2cccnc2)cc1 (stereo not shown) ?
[reply] class B

[ask] Each molecule maps to one class by inhibition at 10 µM. Which class for CC(C)Cc1ccc(C(C)C(=O)NNS(=O)(=O)c2ccc(C(F)(F)F)cc2)cc1 (stereo not shown) ?
[reply] class B

* * *

- System Under Test: hFAAH (Homo sapiens, UniProt O00519)
- Construct: purchased Cayman Chemicals 10005196
- Sequence (O00519 1-579): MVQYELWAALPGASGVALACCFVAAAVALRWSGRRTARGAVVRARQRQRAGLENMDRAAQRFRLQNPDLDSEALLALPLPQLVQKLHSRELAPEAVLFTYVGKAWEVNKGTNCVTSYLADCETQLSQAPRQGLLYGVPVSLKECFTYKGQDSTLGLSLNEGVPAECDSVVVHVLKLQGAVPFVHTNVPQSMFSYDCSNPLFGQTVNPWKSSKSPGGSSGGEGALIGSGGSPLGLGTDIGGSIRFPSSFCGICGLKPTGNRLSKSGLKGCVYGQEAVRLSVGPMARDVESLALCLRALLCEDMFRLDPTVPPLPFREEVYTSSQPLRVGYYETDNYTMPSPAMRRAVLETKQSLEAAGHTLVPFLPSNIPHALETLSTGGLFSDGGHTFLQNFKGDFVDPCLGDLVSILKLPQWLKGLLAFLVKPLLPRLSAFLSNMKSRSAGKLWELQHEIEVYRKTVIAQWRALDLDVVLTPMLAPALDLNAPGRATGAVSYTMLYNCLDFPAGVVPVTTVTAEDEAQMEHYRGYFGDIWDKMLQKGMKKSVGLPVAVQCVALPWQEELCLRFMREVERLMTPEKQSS
- Protocol: Inhibition of FAAH activity (Cayman FAAH inhibitor screening assay kit, AMC-arachidonoyl amide hydrolysis, fluorescence)
- Assay type: biochemical
- Particulars: 10 μM compound, 30 min preincubation, 37° C., triplicate
Parameter threshold = 90%. Response is 1.0 when inhibition at 10 µM meets or exceeds it, else 0.0.

Worked cases, answers included:
INSERT INTO results (molecule, discrete_label) VALUES
  ('CC(C)Cc1ccc(C(C)C(=O)NNS(=O)(=O)c2ccc(-c3ccccc3)cc2)cc1 (centres unmarked)', 1.0),
  ('CC(C)Cc1ccc(C(C)C(=O)NNS(=O)(=O)c2cccs2)cc1 (centres unmarked)', 0.0),
  ('Cc1ccc(S(=O)(=O)NNC(=O)C(C)c2ccc(CC(C)C)cc2)s1 (centres unmarked)', 0.0);

With those in mind, consider the next molecule.
[ask] In plain terms: is recorded inhibition at 10 µM at least 90% for Cc1ccc(-c2ccc(S(=O)(=O)NNC(=O)C(C)c3ccc(CC(C)C)cc3)cc2)cc1 (centres unmarked) ?
[reply] 1.0

Origin of measurements: patent US12234205B1
